B1: ZNF207 (parent)
chain: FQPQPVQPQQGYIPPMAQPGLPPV

Variants of: B1
Test: protein stability index of a GFP-peptide fusion (GPS, HEK-293T) (PSI 1-6); higher = more stable;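 further: lentivirally expressed fusions sorted by FACS into six bins by GFP to DsRed ratio, PSI derived from sequencing read proportions per bin multiplied by bin number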
Settings: c terminus: a fixed tail appended
endpoint-label: protein stability index

* M16K | 3.21
* Q7D | 3.26
* Y12N | 3.77
* P22C | 2.38
* Q10R | 2.79
* Q9E | 3.45
* P5M | 2.61
* Q10M | 2.81
* Q4M | 2.72
* Y12P | 3.6
* V6N | 2.86
* P5S | 3.18
* P3T | 3.95
* P15V | 3.23
* V24E | 3.75
* A17I | 3.17
* P23I | 2.65
* I13R | 3.16
